Cited source for all entries: ChEMBL document CHEMBL3804800

experiment: Selectivity index, ratio of IC50 for human recombinant microsomal MAO-A expressed in baculovirus infected BTI-TN-5B1-4 cells to IC50 for human recombinant microsomal MAO-B expressed in baculovirus infected BTI-TN-5B1-4 cells
Can you tell me Ratio IC50 for the items I'm about to list?

Below: 5 compounds and their reported Ratio IC50.
- smiles_string: "COc1ccc2c(c1)OC/C(=C\\c1cnc(N(C)C)nc1)C2=O"
  Ratio IC50: "> 9.6"
- smiles_string: "CN(C)c1ncc(/C=C2\\COc3cc(Cl)cc(Cl)c3C2=O)cn1"
  Ratio IC50: "> 9450"
- smiles_string: "O=C1/C(=C/c2ccncc2)COc2ccccc21"
  Ratio IC50: "> 8"
- smiles_string: "Nc1ncc(/C=C2\\COc3ccccc3C2=O)cn1"
  Ratio IC50: "> 5.5"
- smiles_string: "CN(C)c1ncc(/C=C2\\COc3ccccc3C2=O)cn1"
  Ratio IC50: "> 415"

Go through the list and state Ratio IC50 for each entry.
1. CN(C)c1ccc(/C=C2\COc3ccccc3C2=O)cn1
2. O=C1/C(=C/c2cccnc2)COc2ccccc21

["> 469", "> 12"]
